FYI, the data here is from PubChem BioAssay (EPA / NIEHS).

read-out: CYP2E1 (gene 1571); assay: LTEA_HepaRG_CYP2E1: Life Technologies and Expression Analysis (LTEA) Assay for CYP2E1 using HepaRG (AID 2283485); details: mRNA level, 48 h; actives raise or lower the signal
Activity calls are given as the source filed them. The calls were made as follows: active = hit-call score of the fitted dose curve at least 0.9, where 1 is the maximum; inactive = score below 0.9.
Hi! Could you answer with just one of these? active, inactive

Solved entries (count: 4):
molecule	class-name
C#CCOS(=O)OC1CCCCC1Oc1ccc(C(C)(C)C)cc1 (stereo unspecified)	active
COC(=O)C=C(C)OP(=O)(OC)OC	inactive
C=CC1(C)OC(=O)N(c2cc(Cl)cc(Cl)c2)C1=O (stereo unspecified)	active
CS/C(C)=N/OC(=O)N(C)SN(C)C(=O)O/N=C(\C)SC	active

input: // param item: `CCCCNC(=O)OCC#CI` ; yields the recorded call
output: inactive

input: Same question, `CN(C)C(=S)SSC(=S)N(C)C` this time
output: inactive

input: Same question, N#CC(CCc1ccc(Cl)cc1)(Cn1cncn1)c1ccccc1 (stereo unspecified) this time
output: active

input: Same question, `O=C(O)COc1nc(Cl)c(Cl)cc1Cl` this time
output: inactive

input: Same question, CCCCC(CC)COC(=O)c1ccccc1C(=O)OCC(CC)CCCC (stereo unspecified) this time
output: inactive

input: Same question, `CNC(=S)S` this time
output: inactive

input: Same question, `CCCCNC(=O)n1c(NC(=O)OC)nc2ccccc21` this time
output: inactive

input: Same question, `Fc1ccc(Oc2ccnc3cc(Cl)cc(Cl)c23)cc1` this time
output: active

input: Same question, CC1COC(Cn2cncn2)(c2ccc(Oc3ccc(Cl)cc3)cc2Cl)O1 (stereo unspecified) this time
output: active

input: Same question, `COc1cnc(OC)n2nc(NS(=O)(=O)c3c(OCC(F)F)cccc3C(F)(F)F)nc12` this time
output: active

input: Same question, `CCOc1cc(Oc2ccc(C(F)(F)F)cc2Cl)ccc1[N+](=O)[O-]` this time
output: active

input: Same question, `O=C(Nc1ccccc1)Nc1ccnc(Cl)c1` this time
output: active

input: Same question, COC(=O)C(C)Oc1ccc(Oc2ccc(Cl)cc2Cl)cc1 (stereo unspecified) this time
output: active

input: Same question, `CC(C)(C)c1ccc(CSc2cnn(C(C)(C)C)c(=O)c2Cl)cc1` this time
output: active

input: Same question, `N#Cc1cc(Br)c(O)c(Br)c1` this time
output: active

input: Same question, `COC(=O)c1ccccc1C(=O)OC` this time
output: inactive

input: Same question, CC(Oc1ccc(Cl)cc1Cl)C(=O)O (stereo unspecified) this time
output: inactive

input: Same question, CCOC(=O)CC(SP(=S)(OC)OC)C(=O)OCC (stereo unspecified) this time
output: inactive

input: Same question, `C=CCC1=C(C)[C@@H](OC(=O)[C@@H]2[C@@H](C=C(C)C)C2(C)C)CC1=O` this time
output: active

input: Same question, COP(N)(=O)SC (stereo unspecified) this time
output: inactive

input: Same question, `COc1ccc(C(c2ccc(OC)cc2)C(Cl)(Cl)Cl)cc1` this time
output: active

input: Same question, CCOC(=O)C(Cl)Cc1cc(-n2nc(C)n(C(F)F)c2=O)c(F)cc1Cl (stereo unspecified) this time
output: inactive
